Taken from ChEMBL document CHEMBL4513216.

Attribute: cytotoxicity at 10 µM
Method summary: Toxicity liver stage against HepG2, at 10uM
Type: cell-based
Parameters: test concentration 10 uM, cell line HepG2-A16-CD81EGFP
Study conditions: human, HepG2-A16-CD81EGFP cells; read-out: INHIBITION
Report the figure along with its unit, number first.

Use these answered entries as a reference point.
- COc1ccc(Cl)cc1CCNC(=O)N(C)CC1CCOC1 (configuration not stated): 7.17%
- Cc1noc(C(C)N2CCN(Cc3nnc(C4CC4)o3)CC2)n1 (configuration not stated): -11.8%
- Cc1nc(CN2CCCC(CCNS(C)(=O)=O)C2)c[nH]1 (configuration not stated): -10.2%
- Cc1cc(NC(=O)CN2CCn3c(nnc3C(C)C)C2)n(C)n1: -5.39%
- CC(=O)NCCNCc1cn(CCN2CCSCC2)nc1C: 0.95%
- Cc1occc1C(=O)N1C[C@@H]2OCCN(CCN3CCCC3)[C@@H]2C1: -76.1%

Problem: // query cytotoxicity at 10 µM value for entry Cc1noc(C)c1CN1CCN(C(C)c2nc(C3CC3)no2)CC1 (configuration not stated)
Result: -16.5%

Problem: Moving on to CNC(=O)CC1CC2(CCN(CC3CC3)CC2)Oc2ccccc21 (configuration not stated)
Result: -0.0368%

Problem: Moving on to Cc1ccc(Sc2nccn(C)c2=O)cc1
Result: 4.8%

Problem: Moving on to O=C(NCc1cc(=O)n2c(n1)CN(CC1CCOC1)CCC2)C1CC1 (configuration not stated)
Result: -11.2%

Problem: Moving on to COC1CCN(C(=O)Cn2nc(C)cc2C)CC1
Result: 3.81%

Problem: Moving on to CC1COc2ccccc2N1C(=O)CCc1cscn1 (configuration not stated)
Result: 1.88%
